- system: human factor Xa (Homo sapiens)
- Sequence (P00742 235-488 limits assumed): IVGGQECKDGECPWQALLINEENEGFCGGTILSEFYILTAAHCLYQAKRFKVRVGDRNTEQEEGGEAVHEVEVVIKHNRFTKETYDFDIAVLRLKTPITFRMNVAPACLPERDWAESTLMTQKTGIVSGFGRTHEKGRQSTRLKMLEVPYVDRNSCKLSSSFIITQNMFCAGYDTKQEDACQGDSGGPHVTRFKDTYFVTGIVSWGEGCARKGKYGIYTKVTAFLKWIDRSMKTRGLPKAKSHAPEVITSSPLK
- Sequence (P00742 41-179 partner limits assumed): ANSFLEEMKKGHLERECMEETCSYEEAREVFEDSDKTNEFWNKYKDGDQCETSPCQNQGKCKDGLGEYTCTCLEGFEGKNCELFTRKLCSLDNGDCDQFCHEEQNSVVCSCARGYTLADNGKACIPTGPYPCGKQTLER
quantity: IC50 (nM)
Report as a plain number; the unit nM is understood.

human factor Xa (Homo sapiens) IC50 of `Cc1cc(C#CCN(Cc2ccccc2)c2cccc(C(=N)N)c2)ccc1C(=O)N1CC=CC1` is 4
